Below, each of the molecules is paired with its reported half-life at 20 μM value.
# Method Notes: Stability in human fecal homogenate
# Type: in vitro ADME
# Condition: 20% fecal homogenate (supernatant), pH 6.8, 20% human fecal homogenate, anaerobic, 37° C., read-out: t½: Human Feces anaerobic (converted)
Bridge positions count the residues as written; N and C are the ends. Square brackets hold non-standard residues; d marks the D form. Peptide text beside a SMILES is read from it. His(π-Bom) = N[C@@H](Cc1cncn1COCc1ccccc1)C(=O)O; Trp(7-Me) = Cc1cccc2c(C[C@H](N)C(=O)O)c[nH]c12; 2Nal = N[C@@H](Cc1ccc2ccccc2c1)C(=O)O; AEF = NCCOc1ccc(C[C@H](N)C(=O)O)cc1; Cit = NC(=O)NCCC[C@H](N)C(=O)O; Pen = CC(C)(S)[C@H](N)C(=O)O; αMeK = C[C@](N)(CCCCN)C(=O)O; Aib = CC(C)(N)C(=O)O

Molecule	half-life at 20 μM
CCCCC(=O)NCCCC[C@H](NC(=O)[C@](C)(CCCCN)NC(=O)[C@H](Cc1ccc2ccccc2c1)NC(=O)[C@H](Cc1ccc(OCCN)cc1)NC(=O)[C@H]1NC(=O)[C@H](CCCCNC(C)=O)NC(=O)[C@H](Cc2c[nH]c3c(C)cccc23)NC(=O)[C@H]([C@@H](C)O)NC(=O)[C@H](CC(N)=O)NC(=O)[C@@H](NC(C)=O)C(C)(C)SSC1(C)C)C(=O)N[C@@H](CC(N)=O)C(=O)N[C@H](CC(C)C)C(N)=O	> 24 h
CC(=O)NCCCC[C@@H]1NC(=O)[C@H](Cc2c[nH]c3c(C)cccc23)NC(=O)[C@H]([C@@H](C)O)NC(=O)[C@H](CC(N)=O)NC(=O)[C@@H](NC(C)=O)C(C)(C)SSC(C)(C)[C@@H](C(=O)N[C@@H](Cc2cncn2COCc2ccccc2)C(=O)N[C@@H](Cc2ccc3ccccc3c2)C(=O)N[C@@](C)(CCCCN)C(=O)N[C@@H](CCCCNC(C)=O)C(=O)N[C@@H](CC(N)=O)C(=O)N[C@H](CC(C)C)C(N)=O)NC1=O [compound 291] (Ac-[Pen]NT[Trp(7-Me)]K(Ac)[Pen][His(π-Bom)][2Nal][αMeK]K(Ac)N[dL]-NH2; disulfide 1-6)	> 24 h
CC(=O)NCCCC[C@H](NC(=O)[C@](C)(CC(C)C)NC(=O)[C@H](Cc1ccc2ccccc2c1)NC(=O)[C@H](Cc1ccc(OCCN)cc1)NC(=O)[C@H]1NC(=O)[C@H](CCC(N)=O)NC(=O)[C@H](Cc2c[nH]c3c(C)cccc23)NC(=O)[C@H]([C@@H](C)O)NC(=O)[C@H](CC(N)=O)NC(=O)[C@@H](NC(C)=O)C(C)(C)SSC1(C)C)C(=O)N1CCC[C@H]1C(=O)NCCC(N)=O	10 h
CC(=O)NCCCC[C@H](NC(=O)[C@](C)(CCCCN)NC(=O)[C@H](Cc1ccc2ccccc2c1)NC(=O)[C@H](Cc1ccc(OCCN)cc1)NC(=O)[C@H]1NC(=O)[C@H](CCCCNC(=O)C(C)(C)N)NC(=O)[C@H](Cc2c[nH]c3c(C)cccc23)NC(=O)[C@H]([C@@H](C)O)NC(=O)[C@H](CC(N)=O)NC(=O)[C@@H](NC(C)=O)C(C)(C)SSC1(C)C)C(=O)N[C@@H](CC(N)=O)C(=O)N[C@H](CC(C)C)C(N)=O	> 24 h
CC(=O)NCCCC[C@H](NC(=O)[C@](C)(CCCCN)NC(=O)[C@H](Cc1ccc2ccccc2c1)NC(=O)[C@H](Cc1ccc(OCCN)cc1)NC(=O)[C@H]1NC(=O)[C@H](CCCNC(N)=O)NC(=O)[C@H](Cc2c[nH]c3c(C)cccc23)NC(=O)[C@H]([C@@H](C)O)NC(=O)[C@H](CC(N)=O)NC(=O)[C@@H](NC(C)=O)C(C)(C)SSC1(C)C)C(=O)N[C@@H](CC(N)=O)C(=O)NC(C)(C)C(=O)N[C@@H](C)C(N)=O [compound 342] (Ac-[Pen]NT[Trp(7-Me)][Cit][Pen][AEF][2Nal][αMeK]K(Ac)N[Aib]A-NH2; disulfide 1-6)	12 h

Task: Bench note: what half-life at 20 μM did CC(=O)NCCCC[C@@H]1NC(=O)[C@H](Cc2c[nH]c3c(C)cccc23)NC(=O)[C@H]([C@@H](C)O)NC(=O)[C@@H]2CCCN2C(=O)[C@@H](NC(C)=O)C(C)(C)SSC(C)(C)[C@@H](C(=O)N[C@@H](Cc2ccc(OCCN)cc2)C(=O)N[C@@H](Cc2ccc3ccccc3c2)C(=O)N[C@@](C)(CCCCN)C(=O)N[C@@H](CCCCNC(C)=O)C(=O)N[C@@H](CC(N)=O)C(=O)N[C@H](CC(C)C)C(N)=O)NC1=O [compound 333] (Ac-[Pen]PT[Trp(7-Me)]K(Ac)[Pen][AEF][2Nal][αMeK]K(Ac)N[dL]-NH2; disulfide 1-6) show?
Output: > 24 h

Task: Bench note: what half-life at 20 μM did `CC(=O)NCCCC[C@H](NC(=O)[C@](C)(CC(C)C)NC(=O)[C@H](Cc1ccc2ccccc2c1)NC(=O)[C@H](Cc1ccc(OCCN)cc1)NC(=O)[C@H]1NC(=O)[C@H](CCC(N)=O)NC(=O)[C@H](Cc2c[nH]c3c(C)cccc23)NC(=O)[C@H]([C@@H](C)O)NC(=O)[C@H](CC(N)=O)NC(=O)[C@@H](NC(C)=O)C(C)(C)SSC1(C)C)C(=O)N[C@@H](C(=O)NCCC(N)=O)[C@H](C)O` show?
Output: > 24 h

Task: Bench note: what half-life at 20 μM did CC(=O)NCCCC[C@@H]1NC(=O)[C@H](Cc2c[nH]c3c(C)cccc23)NC(=O)[C@H]([C@@H](C)O)NC(=O)[C@H](CC(C)C)NC(=O)[C@@H](NC(C)=O)C(C)(C)SSC(C)(C)[C@@H](C(=O)N[C@@H](Cc2ccc(OCCN)cc2)C(=O)N[C@@H](Cc2ccc3ccccc3c2)C(=O)N[C@@](C)(CCCCN)C(=O)N[C@@H](CCCCNC(C)=O)C(=O)N[C@@H](CC(N)=O)C(=O)N[C@H](CC(C)C)C(N)=O)NC1=O [compound 332] (Ac-[Pen]LT[Trp(7-Me)]K(Ac)[Pen][AEF][2Nal][αMeK]K(Ac)N[dL]-NH2; disulfide 1-6) show?
Output: > 24 h

Task: Bench note: what half-life at 20 μM did CC(=O)NCCCC[C@@H]1NC(=O)[C@H](Cc2c[nH]c3c(C)cccc23)NC(=O)[C@H]([C@@H](C)O)NC(=O)[C@H](CCCNC(=N)N)NC(=O)[C@@H](NC(C)=O)C(C)(C)SSC(C)(C)[C@@H](C(=O)N[C@@H](Cc2ccc(OCCN)cc2)C(=O)N[C@@H](Cc2ccc3ccccc3c2)C(=O)N[C@@](C)(CCCCN)C(=O)N[C@@H](CCCCNC(C)=O)C(=O)N[C@@H](CC(N)=O)C(=O)N[C@H](CC(C)C)C(N)=O)NC1=O [compound 336] (Ac-[Pen]RT[Trp(7-Me)]K(Ac)[Pen][AEF][2Nal][αMeK]K(Ac)N[dL]-NH2; disulfide 1-6) show?
Output: > 24 h

----------
# Method Notes: Stability in cynomolgus monkey fecal homogenate
# Assay type: in vitro ADME
# Condition: 20% fecal homogenate (supernatant), pH 6.8, 20% cynomolgus monkey fecal homogenate, anaerobic, 37° C., read-out: t½: Monkey Feces anaerobic (converted)
# Procedure: Centrifuged the homogenate at 2800×g for 15 min. The supernatant is taken out and used for incubations. […] The final test compound concentration was 20 μM.
Below, each of the compounds is paired with its reported half-life at 20 μM value.

Look over these answered cases.
Compound	half-life at 20 μM
CC(=O)NCCCC[C@H](NC(=O)[C@](C)(CCCCN)NC(=O)[C@H](Cc1ccc2ccccc2c1)NC(=O)[C@H](Cc1ccc(OCCN)cc1)NC(=O)[C@H]1NC(=O)[C@H](CCCCNC(=O)CN)NC(=O)[C@H](Cc2c[nH]c3c(C)cccc23)NC(=O)[C@H]([C@@H](C)O)NC(=O)[C@H](CC(N)=O)NC(=O)[C@@H](NC(C)=O)C(C)(C)SSC1(C)C)C(=O)N[C@@H](CC(N)=O)C(=O)N[C@H](CC(C)C)C(N)=O [compound 320]	15 h
CCCCCCCC(=O)NCCCC[C@@H]1NC(=O)[C@H](Cc2c[nH]c3c(C)cccc23)NC(=O)[C@H]([C@@H](C)O)NC(=O)[C@H](CC(N)=O)NC(=O)[C@@H](NC(C)=O)C(C)(C)SSC(C)(C)[C@@H](C(=O)N[C@@H](Cc2ccc(OCCN)cc2)C(=O)N[C@@H](Cc2ccc3ccccc3c2)C(=O)N[C@@](C)(CCCCN)C(=O)N[C@@H](CCCCNC(C)=O)C(=O)N[C@@H](CC(N)=O)C(=O)N[C@H](CC(C)C)C(N)=O)NC1=O [compound 317]	> 24 h

Could you now look at the following compound, please?
Task: Bench note: what half-life at 20 μM did CC(=O)NCCCC[C@@H]1NC(=O)[C@H](Cc2c[nH]c3c(C)cccc23)NC(=O)[C@H]([C@@H](C)O)NC(=O)[C@@H](CC(N)=O)NC(=O)[C@@H](NC(C)=O)C(C)(C)SSC(C)(C)[C@@H](C(=O)N[C@@H](Cc2ccc(OCCN)cc2)C(=O)N[C@@H](Cc2ccc3ccccc3c2)C(=O)N[C@@](C)(CCCCN)C(=O)N[C@@H](CCCCNC(C)=O)C(=O)N[C@@H](CC(N)=O)C(=O)N[C@H](CC(C)C)C(N)=O)NC1=O [compound 338] show?
Output: > 24 h
